Hey, just so you know, these numbers are from PubChem BioAssay.

ASSAY_REMARKS: TOR pathway LAP4-GFP level changes – S. cerevisiae, multiplex flow cytometry, primary screen (AID 1873)
TEST_CONTEXT: S. cerevisiae LAP4-GFP expression, 3 h, at 10 µM, active compounds read high
Inconclusive results are not listed.
MEASURED_METRIC: GFP response vs DMSO (%)
All answers are understood in %, so give the number only.

COMPOUND | RECORDED_RESULT
Nc1nc(Cl)nc2c1ncn2[C@@H]1O[C@H](CO)[C@@H](O)[C@H]1O | 80.3

get_value(item= CCN(CC)CCCNC(=O)C1c2ccccc2Oc2ccccc21 , readout=GFP response vs DMSO) returns 89.4

get_value(item= COc1cc(OC)cc(C(C)=O)c1 , readout=GFP response vs DMSO) returns 99.5

get_value(item= COc1ccc(C2=CC(=O)C=CC2=O)cc1 , readout=GFP response vs DMSO) returns 144

get_value(item= COc1ccc2cc(C(=O)Nc3ccc(S(N)(=O)=O)cc3)sc(=O)c2c1OC , readout=GFP response vs DMSO) returns 79.8

get_value(item= O=C1CC2(CCCC2)CC(=O)N1CCCCN1CCN(c2ncccn2)CC1 , readout=GFP response vs DMSO) returns 91.4

get_value(item= Cc1cc(OC(=O)CNC(=O)OC(C)(C)C)c2c(C)cc(=O)oc2c1 , readout=GFP response vs DMSO) returns 108

get_value(item= CC1(C)S[C@@H]2[C@H](NC(=O)Cc3ccccc3)C(=O)N2[C@H]1C(=O)O , readout=GFP response vs DMSO) returns 101

* * *

ASSAY_REMARKS: rapamycin-like changes in RPL19A-GFP expression – cell-based, S. cerevisiae, multiplex flow cytometry, primary screen (AID 1862);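 note: lower values mimic rapamycin by blocking the RPL19A rise seen in DMSO cells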
TEST_CONTEXT: S. cerevisiae RPL19A-GFP strain, flow cytometry fluorescence, 3 h; at 10 µM; active compounds read low
Results filed as inconclusive are left out.
Below, each entry is listed alongside its reported percent of DMSO control GFP.
All answers are understood in %, so give the number only.

COMPOUND | percent of DMSO control GFP [%]
NS(=O)(=O)c1ccc(CNC(=O)c2cc(-c3ccccc3)nc3ccccc23)cc1 | 98.8
C[C@]12CC[C@@H]3c4ccc(O)cc4C(=O)C[C@H]3[C@@H]1CC[C@@H]2O | 98.3
O=C(c1ccc(Cl)cc1)C1CCCN(Cc2ccc(Oc3ncccn3)cc2)C1 (stereo unspecified) | 108
COc1cc2oc(-c3ccc(O)cc3)cc(=O)c2c(OC)c1O | 100
CC(C)c1ccc(/C=C/C(=O)O)cc1 | 96.3

get_value(item= Cc1cc(=O)oc2cc(OC(C)C(=O)NCC3CCCO3)ccc12 (stereo unspecified) , readout=percent of DMSO control GFP) returns 101

get_value(item= C[C@]12CC[C@H]3[C@@H](CCC4=CC(=O)CC[C@@]43C)[C@@H]1CC[C@@H]2C(=O)CO , readout=percent of DMSO control GFP) returns 93.7

get_value(item= Nc1ccn([C@@H]2O[C@H](CO)[C@@H](O)[C@@H]2O)c(=O)n1 , readout=percent of DMSO control GFP) returns 101

get_value(item= Cc1ccc(-c2nn(-c3cccc(F)c3)cc2CN2CCN(c3ccccn3)CC2)o1 , readout=percent of DMSO control GFP) returns 101

get_value(item= COc1ccccc1/C=C/CN1CCN(Cc2ccc(F)cc2)C(CCO)C1 (stereo unspecified) , readout=percent of DMSO control GFP) returns 101

get_value(item= CCNC(=O)C(Cc1ccccc1)NC(=O)OCc1ccccc1 (stereo unspecified) , readout=percent of DMSO control GFP) returns 101

* * *

TESTED_ON: ATP-binding cassette sub-family B member 6 (Homo sapiens) (UniProt Q9NP58)
Sequence (Q9NP58 whole entry, looked up): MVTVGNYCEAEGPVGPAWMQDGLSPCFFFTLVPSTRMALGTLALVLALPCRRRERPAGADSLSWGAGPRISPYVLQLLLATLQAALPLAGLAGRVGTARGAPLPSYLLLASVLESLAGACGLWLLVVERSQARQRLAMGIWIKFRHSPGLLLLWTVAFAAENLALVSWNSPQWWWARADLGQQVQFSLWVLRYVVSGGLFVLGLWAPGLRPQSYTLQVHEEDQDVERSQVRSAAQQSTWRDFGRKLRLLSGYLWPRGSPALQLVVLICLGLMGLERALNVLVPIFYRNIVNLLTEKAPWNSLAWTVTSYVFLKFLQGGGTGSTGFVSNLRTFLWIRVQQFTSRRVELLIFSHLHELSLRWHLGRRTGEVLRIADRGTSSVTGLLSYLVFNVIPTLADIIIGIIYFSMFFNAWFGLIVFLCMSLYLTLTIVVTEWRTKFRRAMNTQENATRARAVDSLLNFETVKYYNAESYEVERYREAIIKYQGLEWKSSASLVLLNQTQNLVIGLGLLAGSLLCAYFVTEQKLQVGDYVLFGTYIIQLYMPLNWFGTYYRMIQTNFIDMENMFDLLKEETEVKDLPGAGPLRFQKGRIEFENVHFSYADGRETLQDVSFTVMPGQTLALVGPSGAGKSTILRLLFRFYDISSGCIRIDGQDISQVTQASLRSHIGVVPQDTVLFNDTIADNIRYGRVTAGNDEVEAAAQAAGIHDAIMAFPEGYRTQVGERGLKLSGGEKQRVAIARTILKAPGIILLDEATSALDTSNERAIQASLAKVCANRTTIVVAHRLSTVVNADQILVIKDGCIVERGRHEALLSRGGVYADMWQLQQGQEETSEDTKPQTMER
ASSAY_REMARKS: blockers of ABCB6-driven porphyrin uptake – K562-ABCB6 cells, flow cytometry, validation set, pilot screen (AID 588550);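 note: 0% = DMSO wells and 100% = benzethonium chloride 70 µM positive control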
TEST_CONTEXT: K562-ABCB6 porphyrin accumulation, 1 h, at 10 µM, active compounds read high
MEASURED_METRIC: inhibition (%)
All answers are understood in %, so give the number only.

Worked cases, inhibition given:
COMPOUND | TESTED_ON | inhibition (%)
C[C@]12CCC(=O)C=C1[C@H](O)C[C@@H]1[C@@H]2[C@@H](O)C[C@@]2(C)[C@H]1CC[C@]2(O)C(=O)CO | ATP-binding cassette sub-family B member 6 (Homo sapiens) (UniProt Q9NP58) | 3
COc1cc2nc(-c3ccccc3)nc(N3CCCC3)c2cc1OC | ATP-binding cassette sub-family B member 6 (Homo sapiens) (UniProt Q9NP58) | 11
COc1ccc2c(=O)c(-c3cnn(-c4ccccc4)c3)c(C)oc2c1 | ATP-binding cassette sub-family B member 6 (Homo sapiens) (UniProt Q9NP58) | -336
C#C[C@]1(O)CC[C@H]2[C@@H]3CCC4=CC(=O)CC[C@@H]4[C@H]3CC[C@@]21CC | ATP-binding cassette sub-family B member 6 (Homo sapiens) (UniProt Q9NP58) | 7
O=C(NCc1ccc(N2CCCC2=O)cc1)c1ccc(F)cc1 | ATP-binding cassette sub-family B member 6 (Homo sapiens) (UniProt Q9NP58) | 2

get_value(item= CCCc1cc(=O)[nH]c(=S)[nH]1 , readout=inhibition) returns -3

get_value(item= N/C(=N\OC(=O)c1cccc(Br)c1)c1ccncc1 , readout=inhibition) returns 8

get_value(item= O=C1c2cccc3cccc(c23)C(=O)N1c1ccccn1 , readout=inhibition) returns -11

get_value(item= COc1cc(C=NCC2OCCc3ccccc32)cc(OC)c1 (stereo unspecified) , readout=inhibition) returns -47

get_value(item= C#C[C@]1(O)CC[C@H]2[C@@H]3CCc4cc(OC5CCCC5)ccc4[C@H]3CC[C@@]21C , readout=inhibition) returns 3

get_value(item= CCOCCn1c(C(C)O)nc2ccccc21 (stereo unspecified) , readout=inhibition) returns -3

* * *

TESTED_ON: Integrin beta-1 (Homo sapiens) + Integrin alpha-4 (Homo sapiens) (UniProt P13612+P05556)
Sequence (P05556 whole entry, looked up): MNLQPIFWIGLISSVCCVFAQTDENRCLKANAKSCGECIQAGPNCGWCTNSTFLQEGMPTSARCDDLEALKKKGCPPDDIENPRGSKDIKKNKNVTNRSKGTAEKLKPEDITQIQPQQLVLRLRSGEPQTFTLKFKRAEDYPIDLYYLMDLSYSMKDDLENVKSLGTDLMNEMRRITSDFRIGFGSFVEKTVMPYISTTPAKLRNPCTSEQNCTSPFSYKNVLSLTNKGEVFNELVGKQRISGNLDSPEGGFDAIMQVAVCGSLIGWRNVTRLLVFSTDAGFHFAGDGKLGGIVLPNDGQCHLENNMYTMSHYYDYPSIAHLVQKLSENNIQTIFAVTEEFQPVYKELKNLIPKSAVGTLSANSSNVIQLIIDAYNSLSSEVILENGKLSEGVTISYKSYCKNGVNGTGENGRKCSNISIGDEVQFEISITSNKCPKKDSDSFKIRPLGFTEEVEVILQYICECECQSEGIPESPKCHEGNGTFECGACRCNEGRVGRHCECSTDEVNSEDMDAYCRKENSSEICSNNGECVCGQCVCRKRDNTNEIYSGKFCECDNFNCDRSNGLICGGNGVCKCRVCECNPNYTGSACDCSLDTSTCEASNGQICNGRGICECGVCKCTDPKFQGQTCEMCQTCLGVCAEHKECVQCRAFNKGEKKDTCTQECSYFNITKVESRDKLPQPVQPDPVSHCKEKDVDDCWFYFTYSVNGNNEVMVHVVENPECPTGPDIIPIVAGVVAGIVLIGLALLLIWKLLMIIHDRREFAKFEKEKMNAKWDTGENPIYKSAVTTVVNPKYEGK
Sequence (P13612 whole entry, looked up): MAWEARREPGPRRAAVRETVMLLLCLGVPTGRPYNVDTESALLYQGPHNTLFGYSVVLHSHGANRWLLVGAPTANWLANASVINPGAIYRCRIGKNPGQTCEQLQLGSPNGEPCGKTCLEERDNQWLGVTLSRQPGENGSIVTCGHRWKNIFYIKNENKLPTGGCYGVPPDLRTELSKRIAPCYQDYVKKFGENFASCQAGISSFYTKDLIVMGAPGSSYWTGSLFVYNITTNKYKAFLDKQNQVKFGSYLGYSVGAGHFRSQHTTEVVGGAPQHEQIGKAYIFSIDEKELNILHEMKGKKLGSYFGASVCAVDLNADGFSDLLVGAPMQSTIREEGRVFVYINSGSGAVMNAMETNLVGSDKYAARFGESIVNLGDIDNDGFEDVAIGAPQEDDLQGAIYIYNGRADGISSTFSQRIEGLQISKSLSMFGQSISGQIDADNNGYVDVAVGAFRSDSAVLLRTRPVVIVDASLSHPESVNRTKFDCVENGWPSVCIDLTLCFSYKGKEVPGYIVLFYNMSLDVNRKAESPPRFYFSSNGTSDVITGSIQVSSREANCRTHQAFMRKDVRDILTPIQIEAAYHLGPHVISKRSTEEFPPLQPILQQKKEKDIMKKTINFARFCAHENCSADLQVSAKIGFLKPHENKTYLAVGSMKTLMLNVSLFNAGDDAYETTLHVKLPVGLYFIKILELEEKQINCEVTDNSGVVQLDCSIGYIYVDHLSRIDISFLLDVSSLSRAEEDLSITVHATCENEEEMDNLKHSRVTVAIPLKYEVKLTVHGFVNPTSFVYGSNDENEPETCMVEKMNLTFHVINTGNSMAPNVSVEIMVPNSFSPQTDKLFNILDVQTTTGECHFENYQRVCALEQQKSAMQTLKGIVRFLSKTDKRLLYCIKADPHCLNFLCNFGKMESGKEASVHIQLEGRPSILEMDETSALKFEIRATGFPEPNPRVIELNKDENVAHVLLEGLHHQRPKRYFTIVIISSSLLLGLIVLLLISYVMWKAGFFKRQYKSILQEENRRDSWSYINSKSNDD
ASSAY_REMARKS: alpha4beta1 integrin LIBS antibody binding reduction – U937 cells, HUTS-21 mAb, flow cytometry, validation set, VLA-4 allosteric modulator project, pilot screen (AID 2674);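 note: antibody binding induced by the VLA-4 ligand LDV present at three times its Kd; 0% = LDV ligand with antibody and no compound and 100% = antibody without LDV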
TEST_CONTEXT: HUTS-21 LIBS mAb binding, at 6.7 µM, active compounds read high, binding induced by LDV ligand
Activity calls are given as the source filed them.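 Rule for the calls: active = inhibition above 50%, about 3 SD of the validation set; inactive = the rest.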
MEASURED_METRIC: inhibition

MOLECULE | RECORDED_RESULT
COc1ccc(CCn2c(C)nc3c(c(=O)c4ccccc4n3C)c2=O)cc1 | -8.78% (inactive)

get_value(item= O=C(NCCc1ccccc1)C1CCN(C2CCN(Cc3ccco3)CC2)CC1 , readout=inhibition) returns -9.63% (inactive)

get_value(item= CC1(C)CC(=O)c2c(nc3ccccc3c2N)C1 , readout=inhibition) returns -3.57% (inactive)

get_value(item= CC(=O)N(CCC(Cc1ccccc1)c1ccc2c(c1)OCO2)Cc1ccc(Cl)cc1 (stereo unspecified) , readout=inhibition) returns -9.06% (inactive)

get_value(item= CC12CN3CC(C)(CN(C1)C3c1ccc([N+](=O)[O-])o1)C2 (stereo unspecified) , readout=inhibition) returns 12% (inactive)

get_value(item= COc1ccc2c3c([nH]c2c1)C1(NCC3)C(=O)Nc2ccccc21 (stereo unspecified) , readout=inhibition) returns -15.4% (inactive)

get_value(item= COc1ccc2oc(=O)c(C(=O)Nc3ccccc3-c3ccccc3)cc2c1 , readout=inhibition) returns 2.29% (inactive)

get_value(item= O=C1CC[C@@H](CN(Cc2ccccc2)Cc2cn[nH]c2-c2cc3ccccc3o2)N1 , readout=inhibition) returns -4.52% (inactive)

get_value(item= NC(=O)c1cnccn1 , readout=inhibition) returns 10.8% (inactive)

get_value(item= COC(=O)c1ccc(OCCCCN2CC(C)OC(C)C2)cc1 (stereo unspecified) , readout=inhibition) returns -3.77% (inactive)

get_value(item= COc1cc(C(=O)Nc2cccc(-c3nnc(-c4ccco4)o3)c2)ccc1OC(C)=O , readout=inhibition) returns 12.5% (inactive)

* * *

ASSAY_REMARKS: AML differentiation inducers, ER-HoxA9 marrow cells – cell-based, GFP/MAC1 double positive, flow cytometry, validation set, primary screen (AID 588685);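 note: compound exposure lasts four days before antibody staining and flow analysis; 0% = DMSO wells and 100% = 5 µM fulvestrant positive control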
TEST_CONTEXT: active compounds read high, normalized: vehicle 0, fulvestrant 100
Below, each entry is listed alongside its reported differentiation response.
All answers are understood in %, so give the number only.

Worked cases, differentiation response given:
COMPOUND | UNITS_TEXT | RECORDED_RESULT
CCn1c(/C=C/c2ccccc2)nc2ccccc2c1=O | % | 18.4
COc1cc(C(=O)NCCCCCC(=O)O)cc(OC)c1OC | % | -19.2

get_value(item= COc1ccc(-c2[nH]ncc2CN(C)C(C)c2ccon2)c(OC)c1 (stereo unspecified) , readout=differentiation response) returns -4.91

get_value(item= OC12CCCCC1C(c1ccc3c(c1)OCO3)N(Cc1cccc(F)c1)CC2 (stereo unspecified) , readout=differentiation response) returns -10.5

get_value(item= COc1cccc(OCc2nnc(-c3cccs3)o2)c1 , readout=differentiation response) returns -0.06

get_value(item= CN1CCN(CC/C=C2/c3ccccc3Sc3ccc(S(=O)(=O)N(C)C)cc32)CC1 , readout=differentiation response) returns -13.3
